Target: T1, human Galectin-3 (Gal3), full-length recombinant (human, UniProt P17931 2-250)
T1 construct: treated here as one molecule; also called hGAL3; hGal3
T1 sequence (P17931 2-250 limits assumed): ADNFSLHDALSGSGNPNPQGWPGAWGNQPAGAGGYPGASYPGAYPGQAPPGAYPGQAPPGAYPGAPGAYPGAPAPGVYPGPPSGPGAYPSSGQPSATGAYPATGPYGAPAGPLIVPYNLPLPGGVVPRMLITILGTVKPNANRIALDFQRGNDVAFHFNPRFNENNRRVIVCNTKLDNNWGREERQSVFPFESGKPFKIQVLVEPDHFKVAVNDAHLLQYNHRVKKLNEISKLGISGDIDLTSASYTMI
Assay: blocking ELISA, Gal3 coated, biotin-Tau aggregates
Measured property: % blocking of Gal3-Tau aggregates binding

// F847C.11B1 (antibody, human IgG4 S228P, kappa, V domains shown, also called 847.11B1) VH: EVQLQQSGPELVKPGASVKISCKASGNTFTDHNMHWVKQSHGKSLEWIGYIYPYNGGTGYNQKFKSKATLTVDNSSSTVYMELRSLTSEDSAVYYCARGEYDYLAWFAYWGQGTLVTVSA VL: EIVLTQSPASLSVTTGEKVTIRCITSIDIDDDMNWYQQKPGEPPKLLISEGNTLRPGVPSRFSSSGYGTDFVFTIENTLSEDVADYYCLQSDNKPLTFGAGTKLELKR : % blocking of Gal3-Tau aggregates binding value = < 50%
